This collection of values is drawn from ChEMBL document CHEMBL3751735.

- System: Hepatitis C virus
- method_notes: Antiviral activity against HCV genotype 1b Con1 bicistronic replicon infected in human Huh7 cells assessed as replicon RNA expression measured 3 days post dose by real time RT-PCR analysis
- Format: functional, organism-based, Hepacivirus hominis
- assay_conditions: isolate Con1, Huh-7, 72 h
So I've got a bunch of molecules here, and I need their EC50 values.
State the answer as a number, implicitly in nM.

Which measured EC50 belongs to `Cc1cc2c(cc1F)c(C(N)=O)c(-c1ccc(NS(=O)(=O)C(C)(C)C)cc1)n2C1CCCC1` , tested on Hepatitis C virus? 39

Which measured EC50 belongs to `CCCS(=O)(=O)Nc1ccc(-c2c(C(N)=O)c3cc(F)c(C)cc3n2C2CCCC2)cc1` , tested on Hepatitis C virus? 870

Which measured EC50 belongs to `CC(C)(C)S(=O)(=O)Nc1ccc(-c2c(C(N)=O)c3cc(F)c(OC(F)F)cc3n2C2CCCC2)c(F)c1` , tested on Hepatitis C virus? 2

Which measured EC50 belongs to `Cc1cc(F)c2c(C(N)=O)c(-c3ccc(NS(=O)(=O)C(C)(C)C)cc3)n(C3CCCC3)c2c1` , tested on Hepatitis C virus? 34

* * *

- method_notes: AUC (0 to 6 hrs) in Sprague-Dawley rat plasma at 10 mg/kg, po measured at 30 mins to 6 hrs post dose
- Type: ADME, organism-based
- Design: dose 10 mg/kg, time < 6 hr, route oral
So I've got a bunch of compounds here, and I need their AUC(0-t) at 6 h values.
State the answer as a number, implicitly in µM·h.

If you can, please state the reported AUC(0-t) at 6 h value of `CC(C)(C)S(=O)(=O)Nc1ccc(-c2c(C(N)=O)c3cc(F)c(OC(F)F)cc3n2C2CCCC2)c(F)c1` . 0.37

If you can, please state the reported AUC(0-t) at 6 h value of `CC(C)(C)S(=O)(=O)Nc1ccc(-c2c(C(N)=O)c3cc(F)c(OC(F)F)cc3n2C2CCCCC2)c(Cl)c1` . 2.1

If you can, please state the reported AUC(0-t) at 6 h value of `CC(C)(C)S(=O)(=O)Nc1ccc(-c2c(C(N)=O)c3cc(F)c(OC(F)F)cc3n2C2CCCC2)cc1` . 0.382

* * *

- method_notes: Ratio of drug level in liver to plasma in Sprague-Dawley rat at 10 mg/kg, po measured 6 hrs post dose
- Format: ADME, organism-based
- assay_conditions: liver and plasma
The threshold is 60. Values of Kp at 6 h beneath it are tagged 1 (yes); values meeting or exceeding it are tagged 0 (no).

Hello, is Kp at 6 h of the following compound strictly smaller than 60? `CCc1cc2c(cc1F)c(C(N)=O)c(-c1ccc(NS(=O)(=O)C(C)(C)C)cc1)n2C1CCCC1` 1 (yes)

Hello, is Kp at 6 h of the following compound strictly smaller than 60? `Cc1cc2c(cc1F)c(C(N)=O)c(-c1ccc(NS(=O)(=O)C(C)(C)C)cc1)n2C1CCC1` 1 (yes)

Hello, is Kp at 6 h of the following compound strictly smaller than 60? `Cc1cc2c(cc1F)c(C(N)=O)c(-c1ccc(NS(=O)(=O)C(C)(C)C)cc1)n2C1CCCCC1` 1 (yes)

Hello, is Kp at 6 h of the following compound strictly smaller than 60? `CC(C)(C)S(=O)(=O)Nc1ccc(-c2c(C(N)=O)c3cc(F)c(OC(F)F)cc3n2-c2ccccc2)cc1` 1 (yes)

Hello, is Kp at 6 h of the following compound strictly smaller than 60? `CC(C)(C)S(=O)(=O)Nc1ccc(-c2c(C(N)=O)c3cc(F)c(OC(F)F)cc3n2C2CCCCC2)c(Cl)c1` 0 (no)

Hello, is Kp at 6 h of the following compound strictly smaller than 60? `CC(C)(C)S(=O)(=O)Nc1ccc(-c2c(C(N)=O)c3cc(F)c(OC(F)F)cc3n2C2CCCCC2)cn1` 0 (no)

Hello, is Kp at 6 h of the following compound strictly smaller than 60? `CC(C)(C)S(=O)(=O)Nc1ccc(-c2c(C(N)=O)c3cc(F)c(OC(F)F)cc3n2C2CCCC2)c(Cl)c1` 0 (no)

Hello, is Kp at 6 h of the following compound strictly smaller than 60? `Cc1cc(NS(=O)(=O)C(C)(C)C)ccc1-c1c(C(N)=O)c2cc(F)c(OC(F)F)cc2n1C1CCCCC1` 0 (no)

* * *

- Tested on: Hepatitis C virus
- method_notes: Antiviral activity against HCV genotype 1b Con1 bicistronic replicon infected in human Huh7 cells assessed as replicon RNA expression measured 3 days post dose by real time RT-PCR analysis
- Assay type: functional, organism-based, Hepacivirus hominis
- assay_conditions: isolate Con1, Huh-7, 72 h
readout_type: EC50
The number alone won't do; follow it with the unit.

If you can, please state the reported EC50 value of `CCc1cc2c(cc1F)c(C(N)=O)c(-c1cnc(NS(=O)(=O)C(C)(C)C)nc1)n2C1CCCCC1` . 2100 nM

If you can, please state the reported EC50 value of `CC(C)(C)S(=O)(=O)Nc1ccc(-c2c(C(N)=O)c3cc(F)c(OC(F)F)cc3n2-c2ccccc2)c(F)c1` . 2 nM

If you can, please state the reported EC50 value of `CC(C)c1cc2c(cc1F)c(C(N)=O)c(-c1ccc(NS(=O)(=O)C(C)(C)C)cc1)n2C1CCCC1` . 170 nM

If you can, please state the reported EC50 value of `Cc1cc(-c2c(C(N)=O)c3cc(F)c(OC(F)F)cc3n2C2CCCCC2)ccc1NS(=O)(=O)C(C)(C)C` . 36 nM

* * *

- method_notes: Toxicity against human HuH7 cells harboring HCV genotype 1b bicistronic replicon assessed as inhibition of GAPDH mRNA expression measured 3 days post dose by real time RT-PCR analysis
- Format: cell-based, Huh-7
readout_type: IC50 at 3 days

If you can, please state the reported IC50 at 3 days value of `CCOc1cc2c(cc1F)c(C(N)=O)c(-c1ccc(NS(=O)(=O)C(C)(C)C)cc1)n2C1CCCC1` . > 10 µM

If you can, please state the reported IC50 at 3 days value of `CCCc1cc2c(cc1F)c(C(N)=O)c(-c1ccc(NS(=O)(=O)C(C)(C)C)cc1)n2C1CCCC1` . 10 µM

If you can, please state the reported IC50 at 3 days value of `Cc1cc(NS(=O)(=O)C(C)(C)C)ccc1-c1c(C(N)=O)c2cc(F)c(OC(F)F)cc2n1C1CCCC1` . 9.1 µM

If you can, please state the reported IC50 at 3 days value of `CCCS(=O)(=O)Nc1ccc(-c2c(C(N)=O)c3cc(F)c(C)cc3n2C2CCCC2)cc1` . > 10 µM

If you can, please state the reported IC50 at 3 days value of `Cc1cc2c(cc1F)c(C(N)=O)c(-c1ccc(NS(=O)(=O)C(C)(C)C)cc1)n2C1CCC1` . > 10 µM

If you can, please state the reported IC50 at 3 days value of `CC(C)c1cc2c(cc1F)c(C(N)=O)c(-c1ccc(NS(=O)(=O)C(C)(C)C)cc1)n2C1CCCC1` . > 10 µM

If you can, please state the reported IC50 at 3 days value of `Cc1cc2c(cc1F)c(C(N)=O)c(-c1ccc(NS(=O)(=O)C(C)(C)C)cc1)n2-c1ccncc1` . > 10 µM

If you can, please state the reported IC50 at 3 days value of `CC(C)(C)S(=O)(=O)Nc1ccc(-c2c(C(N)=O)c3cc(F)c(OC(F)F)cc3n2C2CCCCC2)cn1` . > 10 µM

* * *

- method_notes: AUC (0 to 6 hrs) in Sprague-Dawley rat plasma at 10 mg/kg, po measured at 30 mins to 6 hrs post dose
- Format: ADME, organism-based
- Parameters: dose 10 mg/kg, time < 6 hr, route oral
readout_type: AUC(0-t) at 6 h
The number alone won't do; follow it with the unit.

If you can, please state the reported AUC(0-t) at 6 h value of `CC(C)(C)S(=O)(=O)Nc1ccc(-c2c(C(N)=O)c3cc(F)c(OC(F)F)cc3n2C2CCCCC2)c(F)c1` . 3.09 µM·h

If you can, please state the reported AUC(0-t) at 6 h value of `Cc1cc2c(cc1F)c(C(N)=O)c(-c1ccc(NS(=O)(=O)C(C)(C)C)cc1)n2C1CCCC1` . 0.457 µM·h

If you can, please state the reported AUC(0-t) at 6 h value of `CC(C)(C)S(=O)(=O)Nc1ccc(-c2c(C(N)=O)c3cc(F)c(OC(F)F)cc3n2C2CCCCC2)cc1` . 0.831 µM·h

If you can, please state the reported AUC(0-t) at 6 h value of `Cc1cc2c(cc1F)c(C(N)=O)c(-c1ccc(NS(=O)(=O)C(C)(C)C)cc1)n2-c1ccccc1` . 14.9 µM·h

If you can, please state the reported AUC(0-t) at 6 h value of `Cc1cc2c(cc1F)c(C(N)=O)c(-c1ccc(NS(=O)(=O)C(C)(C)C)cc1)n2C1CCCCC1` . 0.685 µM·h

If you can, please state the reported AUC(0-t) at 6 h value of `CC(C)(C)S(=O)(=O)Nc1ccc(-c2c(C(N)=O)c3cc(F)c(OC(F)F)cc3n2C2CCCCC2)cn1` . 0.204 µM·h

If you can, please state the reported AUC(0-t) at 6 h value of `CC(C)(C)S(=O)(=O)Nc1ccc(-c2c(C(N)=O)c3cc(F)c(OC(F)F)cc3n2-c2ccccc2)c(F)c1` . 7.93 µM·h

If you can, please state the reported AUC(0-t) at 6 h value of `Cc1cc2c(cc1F)c(C(N)=O)c(-c1ccc(NS(=O)(=O)C(C)(C)C)cc1)n2C1CCC1` . 1.45 µM·h
